Measured values drawn from patent US20240116985A1 for this set.

target: beta-catenin/TCF4 engagement (Homo sapiens, UniProt P35222); construct: expressed in transfected cells; host or cells: HEK293; assay: Nano-BRET target engagement assay (B-cat-Halo & TCF4-Luc in HEK293 cells); assay type: cell-based; conditions: absolute IC50; read-out: NanoBRET Abs IC50
Quantity Kind: IC50 (µM)
Use µM as the unit, but write only the number.

Answered examples (2):
CCCC[C@@H]1NC(=O)[C@H](Cc2cccc(C(=O)O)c2)NC(=O)[C@H](CC(=O)O)NC(=O)C2(CCCC=CCCCOC(=O)N3CC[C@@](C(=O)N[C@@H](Cc4ccccc4Cl)C(=O)N[C@@H](Cc4csc5ccccc45)C(=O)N[C@@H](CCC(N)=O)C(N)=O)(C3)NC(=O)[C@H](CC(C)C)NC(=O)[C@H](Cc3ccccc3)NC(=O)[C@H](C)NC1=O)CCCC=CC[C@]1(CCCN1C(C)=O)C(=O)N[C@@H](CC(=O)O)C(=O)N[C@@H](CC(C)(C)C)C(=O)N2 (stereo partly drawn) | 3.5
CC(=O)N1CCC[C@]12CC=CCCCC1(CCCC=CCCCOC(=O)N3CC[C@@](C(=O)N[C@@H](Cc4ccccc4C(F)(F)F)C(=O)N[C@@H](Cc4csc5ccccc45)C(=O)N[C@@H](CO)C(N)=O)(C3)NC(=O)[C@H](CC(C)C)NC(=O)[C@H](Cc3ccccc3)NC(=O)[C@H](C)NC(=O)[C@H](C)NC(=O)[C@H](Cn3cc(CC(C)(C)C(=O)O)nn3)NC(=O)[C@H](CC(=O)O)NC1=O)NC(=O)[C@H](CC(C)(C)C)NC(=O)[C@H](CC(=O)O)NC2=O (stereo partly drawn) | 2.6

Okay, next one:
// lookup IC50 for CC(=O)N1CCC[C@]12CC=CCCCC1(CCCC=CCCCOC(=O)N3CC[C@@](C(=O)N[C@@H](Cc4ccsc4)C(=O)N[C@@H](Cc4csc5ccccc45)C(=O)N[C@@H](CCC(N)=O)C(N)=O)(C3)NC(=O)[C@H](CC(C)C)NC(=O)[C@H](Cc3ccccc3)NC(=O)[C@H](C)NC(=O)[C@H](C)NC(=O)[C@H](CC(=O)O)NC(=O)[C@H](CC(=O)O)NC1=O)NC(=O)[C@H](CC(C)C)NC(=O)[C@H](CC(=O)O)NC2=O (stereo partly drawn)
17.4

---

Molecular target: full-length beta-Catenin (Uniprot ID P35222) (Homo sapiens)
Construct: 10 nM full-length beta-Catenin (Uniprot ID P35222)
Sequence (P35222 1-781): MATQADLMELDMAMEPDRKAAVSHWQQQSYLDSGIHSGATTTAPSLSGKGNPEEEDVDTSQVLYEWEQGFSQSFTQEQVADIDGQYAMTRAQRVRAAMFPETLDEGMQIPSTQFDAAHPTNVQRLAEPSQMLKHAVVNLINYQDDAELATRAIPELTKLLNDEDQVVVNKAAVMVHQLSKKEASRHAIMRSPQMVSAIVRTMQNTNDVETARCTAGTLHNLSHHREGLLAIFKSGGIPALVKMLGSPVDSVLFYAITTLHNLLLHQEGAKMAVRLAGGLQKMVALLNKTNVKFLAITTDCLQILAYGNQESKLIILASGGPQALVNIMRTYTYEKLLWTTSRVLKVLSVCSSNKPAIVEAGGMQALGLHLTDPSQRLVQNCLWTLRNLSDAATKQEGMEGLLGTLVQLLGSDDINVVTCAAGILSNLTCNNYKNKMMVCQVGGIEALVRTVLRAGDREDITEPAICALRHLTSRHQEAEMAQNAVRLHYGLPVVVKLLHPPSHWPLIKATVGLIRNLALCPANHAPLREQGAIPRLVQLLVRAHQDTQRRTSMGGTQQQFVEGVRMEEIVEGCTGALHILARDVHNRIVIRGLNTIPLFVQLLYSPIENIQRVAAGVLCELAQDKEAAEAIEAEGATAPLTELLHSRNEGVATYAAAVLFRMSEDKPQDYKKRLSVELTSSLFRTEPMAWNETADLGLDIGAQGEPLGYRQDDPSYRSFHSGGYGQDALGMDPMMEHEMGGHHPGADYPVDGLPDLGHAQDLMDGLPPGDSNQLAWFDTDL
Experiment: Fluorescence polarization IC50 (beta-catenin / 5FAM-TCF4 10-53 competition)
Type: binding
Conditions: fluorescence polarization; read-out: beta-Catenin FP IC50
Quantity Kind: pIC50
// pIC50 here means minus log10 of the molar concentration (mol/L)

CC(=O)N1CCC[C@]12CC=CCCCC1(CCCC=CCCCOC(=O)N3CC[C@@](C(=O)N[C@@H](Cc4ccsc4)C(=O)N[C@@H](Cc4csc5ccccc45)C(=O)N[C@@H](CCC(N)=O)C(N)=O)(C3)NC(=O)[C@H](CC(N)=O)NC(=O)[C@H](Cc3cccc(Cl)c3)NC(=O)[C@H](C)NC(=O)[C@H](C)NC(=O)[C@H]([C@@H](C)O)NC(=O)[C@H](CC(N)=O)NC1=O)NC(=O)[C@H](CC(C)(C)C)NC(=O)[C@H](CC(=O)O)NC2=O (some centres unmarked) [I-2013] | 6.18

Now look at this one.
Which pIC50 reading was recorded for the compound CC(=O)N1CCC[C@]12CC=CCCCC1(CCCC=CCCCOC(=O)N3CC[C@@](C(=O)N[C@@H](Cc4ccccc4Cl)C(=O)N[C@@H](Cc4csc5ccccc45)C(=O)N[C@@H](CCC(N)=O)C(=O)N[C@H](CO)CC(C)C)(C3)NC(=O)[C@H](CC(C)C)NC(=O)[C@H](Cc3ccccc3)NC(=O)[C@H](C)NC(=O)[C@H](C)NC(=O)[C@H](Cc3cccc(C(=O)O)c3)NC(=O)[C@H](CC(=O)O)NC1=O)NC(=O)[C@H](CC(C)(C)C)NC(=O)[C@H](CC(=O)O)NC2=O (some centres unmarked) ?
7.04

---

Some compounds, each annotated with its measured EC50.
target: full-length B-Catenin (Uniprot ID P35222) (Homo sapiens); construct: 65 nM full-length B-Catenin (Uniprot ID P35222); assay: Alphascreen binding assay (beta-catenin / biotin-TCF4 10-53)
Just the number in µM, nothing appended.

A selection of reference data follows.
CC(=O)N1CCC[C@]12CC=CCCCC1(CCCC=CCCCCCC[C@@](C)(C(=O)N[C@@H](Cc3ccccc3)C(=O)N[C@@H](Cc3c[nH]c4ccccc34)C(=O)N[C@@H](CCC(N)=O)C(N)=O)NC(=O)[C@H](C(C)C)NC(=O)[C@H](Cc3cccc(C(F)(F)F)c3)NC(=O)[C@H](C)NC(=O)[C@H](C)NC(=O)[C@H](CC(=O)O)NC(=O)[C@H](CC(=O)O)NC1=O)NC(=O)[C@H](C)NC(=O)[C@H](CC(=O)O)NC2=O (some centres unmarked) [I-239] | 0.267
CC(=O)N1CCC[C@]12CC=CCCCC1(CCCC=CCCCCCC[C@@](C)(C(=O)N[C@@H](Cc3ccccc3)C(=O)N[C@@H](Cc3c[nH]c4ccccc34)C(=O)N[C@@H](CCC(N)=O)C(N)=O)NC(=O)[C@H](C(C)C)NC(=O)[C@H](Cc3cccc(C(F)(F)F)c3)NC(=O)[C@H](C)NC(=O)[C@H](C)NC(=O)[C@H](CC(=O)O)NC(=O)[C@H](CC(=O)O)NC1=O)NC(=O)[C@H](C)NC(=O)[C@H](CC(=O)O)NC2=O (some centres unmarked) [I-237] | 0.384

// lookup EC50 for COc1ccc2[nH]cc(C[C@H](NC(=O)[C@H](Cc3ccccc3)NC(=O)[C@]3(C)CCCCCCC=CCCCC4(CCCC=CC[C@]5(CCCN5C(C)=O)C(=O)N[C@@H](CC(=O)O)C(=O)N[C@@H](C)C(=O)N4)C(=O)N[C@@H](CC(=O)O)C(=O)N[C@@H](CCC(=O)O)C(=O)N[C@@H](C)C(=O)N[C@@H](C)C(=O)N[C@@H](Cc4ccccc4)C(=O)N[C@@H](C(C)C)C(=O)N3)C(=O)N[C@@H](CCC(N)=O)C(N)=O)c2c1 (some centres unmarked)
1.23

CC(=O)N1CCC[C@]12CC=CCCCC1(CCCC=CCCCCCC[C@@](C)(C(=O)N[C@@H](Cc3ccccc3)C(=O)N[C@@H](CC3CNc4ccccc43)C(=O)N[C@@H](CCC(N)=O)C(N)=O)NC(=O)[C@H](C(C)C)NC(=O)[C@H](Cc3ccccc3)NC(=O)[C@H](C)NC(=O)[C@H](C)NC(=O)[C@H](CCC(=O)O)NC(=O)[C@H](CC(=O)O)NC1=O)NC(=O)[C@H](C)NC(=O)[C@H](CC(=O)O)NC2=O (some centres unmarked) [I-167] , same question.
6.2

Entry to check: CC(=O)N1CCC[C@]12CC=CCCCC1(CCCC=CCCCCCC[C@@](C)(C(=O)N[C@@H](Cc3ccccc3)C(=O)N[C@@H](Cc3c[nH]c4ccccc34)C(=O)N[C@@H](CCC(N)=O)C(N)=O)NC(=O)[C@H](C(C)C)NC(=O)[C@H](Cc3ccccc3)NC(=O)[C@H](C)NC(=O)[C@H](C)NC(=O)[C@H](CCC(=O)O)NC(=O)[C@H](CC(=O)O)NC1=O)NC(=O)[C@H](C)NC(=O)[C@H](CC(N)=O)NC2=O (some centres unmarked) [I-200]
0.173
